Hi there, I'd appreciate the recorded TGI for every entry that follows.
# Test system: IGROV1 ovarian
# test description: NCI tumour cell line growth inhibition, 48 h

Give the reported value of TGI for this record: O=C(O)C(Cc1ccccc1)N1C(=O)c2ccccc2C1=O (stereo unspecified) > 100 µM

Give the reported value of TGI for this record: COC1CCC(OS(C)(=O)=O)CO1 (stereo unspecified) > 100 µM

Give the reported value of TGI for this record: "Nc1ccccc1C(=O)NNC(=O)c1ccccc1N" > 100 µM

Give the reported value of TGI for this record: OC1OC(c2ccc[nH]2)C(F)(F)C(F)(F)C1(F)F (stereo unspecified) > 100 µM

Give the reported value of TGI for this record: COC(=O)CC1CN(C(=O)OCc2ccccc2)C(C)(C)O1 (stereo unspecified) > 100 µM

Give the reported value of TGI for this record: "O=C(n1[nH]c(=O)n(-c2ccc([N+](=O)[O-])cc2)c1=O)C(Cl)(Cl)Cl" > 75 µM
